Numbers sourced from PubChem BioAssay (NCI).

Test system: HCT-116 colon
Test: NCI-60 one-dose screen, 48 h (100 = growth as untreated, 0 = no growth, -100 = all killed)
Conditions: 10 µM
Procedure: Growth inhibition of the HCT-116 human tumor cell line is measured as a screen for anti-cancer activity. Cells are grown in 96 well plates and exposed to the test compound for 48 hours. Compounds are tested at a single concentration, which is 10^-5 M for most compounds. The reported endpoint is percent growth (GI% or GIPRCNT), where numbers from 0 - 100% represent growth inhibition, and numbers from -100% - 0 represent cell death. For example, a value of 40 represents 60% growth inhibition. […]
This is part of a sample that, as a whole, favours compounds with a hit. Of some 83,000 tested, about 20% had one in any assay.
Catalogue of growth readings, one per entry.
Just the number please, in %, no unit attached.

Molecule: C/C(=N\NC(=O)c1sc(=S)n(C)c1N)c1cc2ccccc2o1
growth (%): 59.1

Asked: Return reported growth. Input molecule: O=C(c1ccccc1)C(Sc1ccccc1)c1ccccc1 (stereo not given)
Given back: 55.8

Asked: Given `O=C1/C(=C/c2ccc(O)cc2)Oc2ccc(Cl)cc21` , respond with its growth.
Given back: 65.7
